target system: KPNB1 HEAT (importin subunit beta-1, HEAT repeat) (human) (UniProt Q14974)
Sequence (Q14974 whole entry, the tested form may be a part): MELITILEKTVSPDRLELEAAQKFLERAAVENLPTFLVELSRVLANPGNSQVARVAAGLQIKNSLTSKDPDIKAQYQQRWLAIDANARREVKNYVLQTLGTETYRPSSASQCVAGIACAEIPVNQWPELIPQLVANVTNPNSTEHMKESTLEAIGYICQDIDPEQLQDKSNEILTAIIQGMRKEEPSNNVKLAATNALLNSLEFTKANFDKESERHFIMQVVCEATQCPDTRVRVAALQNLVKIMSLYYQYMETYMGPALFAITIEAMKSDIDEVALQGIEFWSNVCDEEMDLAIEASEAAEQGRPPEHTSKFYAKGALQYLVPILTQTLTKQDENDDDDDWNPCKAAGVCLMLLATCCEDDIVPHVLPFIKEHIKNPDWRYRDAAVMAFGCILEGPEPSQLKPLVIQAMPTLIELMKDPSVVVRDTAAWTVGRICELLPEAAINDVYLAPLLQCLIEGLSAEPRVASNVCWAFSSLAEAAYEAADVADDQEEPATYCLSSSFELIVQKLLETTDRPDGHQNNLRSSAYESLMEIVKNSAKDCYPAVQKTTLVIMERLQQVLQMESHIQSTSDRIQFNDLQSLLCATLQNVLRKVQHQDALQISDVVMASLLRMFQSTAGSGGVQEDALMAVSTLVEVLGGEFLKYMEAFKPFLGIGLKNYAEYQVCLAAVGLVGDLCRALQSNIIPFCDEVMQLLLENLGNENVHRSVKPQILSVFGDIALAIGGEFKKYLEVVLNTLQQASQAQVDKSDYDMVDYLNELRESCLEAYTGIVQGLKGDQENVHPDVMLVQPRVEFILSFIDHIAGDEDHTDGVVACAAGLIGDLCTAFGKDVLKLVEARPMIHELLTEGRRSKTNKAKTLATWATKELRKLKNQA
assay info: fluorescence polarisation; competition: unlabelled peptide in serial dilution against the protein domain (master mix at four times the KD) with its FITC-labelled probe peptide; 50 mM KPO4 or NaPO4 pH 7.5; Ki calculated from IC50
recorded endpoint: pKi
The read-out pKi is expressed as -log10 of concentration in moles per litre.

Ac-NPPVATFVFGQSSNPY-NH2 [NUP153 1220-1234 peptide with an extra C-terminal Y] has a reported pKi of 4.96
